Experiment: in vitro
Conditions: rat, gh3-tre-luc cells, AC50 (uM) modified / 1000, Tox21_110001=Tox21_200801; viability, 1 nM T3 present, 24 h
Readout: CC50 at 24 h

Quick one: CC50 at 24 h for C=CCBr [Allyl bromide] ?
> 100 µM

====

Test: in vitro
Conditions: rat, gh3-tre-luc cells, AC50 (uM) modified / 1000
Where a name gives a salt, the structure may show the parent alone.
Form field: CC50 at 24 h (one value per entry).

Below are worked cases with known answers.
{"columns": ["Compound", "CC50 at 24 h"],
 "data": [
  ["NCCOCCO", "> 90 µM"],
  ["CCCN1CCC[C@H](c2cccc(O)c2)C1 [R-3-PPP hydrochloride]", "> 50 µM"],
  ["CCc1ccc(Br)cc1", "> 90 µM"],
  ["Cc1oc2c(NC(=O)c3c(Cl)cccc3Cl)cccc2c1C(C)(C)O", "19.6 µM"],
  ["CC(C)(c1cc(Br)c(OCC(Br)CBr)c(Br)c1)c1cc(Br)c(OCC(Br)CBr)c(Br)c1 (stereo not drawn)", "> 50 µM"]
]}

Attention now shifts to the item below.
Quick one: CC50 at 24 h for Cc1cc2c(cc1C(F)(F)F)N(C(=O)Nc1ccc(Oc3cccnc3C)nc1)CC2 [SB243213A] ?
69.4 µM

The measured values listed here are drawn from paper PMC6792352.
